Catalogue of CC50 at 24 h values
Experiment: in vitro
Details: human, uninfected HeLa-ACE2 cells, uninfected HeLa-ACE2 CC50, uninfected HeLa-ACE2 cells, average of triplicates

// worked examples, CC50 at 24 h included
Cc1ccc(CNC(=O)C2CCN([C@H](C)c3cccc4ccccc34)CC2)cc1 = > 39.8 µM
COc1ccc(CNC(=O)C2CCN(C(C)c3cccc4ccccc34)C2)cc1 (stereo not shown) = 29.6 µM
C[C@H](c1cccc2ccccc12)N1CCC(C(=O)NCc2ccc(Cl)cc2)CC1 = 14.4 µM
C[C@@H](c1cccc2ccccc12)N1CCC(C(=O)NCC2CCCCC2)CC1 (racemic) = > 39.8 µM
Cc1ccc(CNC(=O)C2CCN([C@@H](C)c3cccc4ccccc34)CC2)cc1 (stereo in doubt) = > 39.8 µM

Query: I have this compound here, CC(c1cccc2ccccc12)N1CCC(C(=O)NCc2ccc(Cl)cc2)CC1 (stereo not shown) , and I need its recorded CC50 at 24 h.
Reply: 18.8 µM

Query: I have this compound here, C[C@@H](c1cccc2ccccc12)N1CCC(C(=O)NCc2ccncc2)CC1 (racemic) , and I need its recorded CC50 at 24 h.
Reply: > 39.8 µM

---

Assay: Parallel artificial membrane permeability assay (PAMPA)
Observation type: Papp at 5 h, 10 μM (×10⁻⁶ cm/s)
Reply with just the number (in ×10⁻⁶ cm/s).

Query: I have this compound here, COc1ccc(CNC(=O)C2CCN(C(C)c3cccc4ccccc34)C2)cc1 (stereo not drawn) , and I need its recorded Papp at 5 h, 10 μM.
Reply: 0.61

Query: I have this compound here, COc1ccc(CC(=O)N2CCN([C@@H](C)c3cccc4ccccc34)CC2)cc1 , and I need its recorded Papp at 5 h, 10 μM.
Reply: 1.07

Query: I have this compound here, COc1ccc(CNC(=O)C2CCN(C(C)c3cccc4ccccc34)CC2)cc1 (stereo not drawn) , and I need its recorded Papp at 5 h, 10 μM.
Reply: 1.07

---

System: SARS-CoV-2
Conditions: supplement summary
Counter-ions that a name gives are not always drawn.
Think of 20 as a floor: if SI (average CC50/average EC50) stands on it or above, it is t; beneath it, f.

Take a look at these entries with their results.
C[C@H](c1cccc2ccccc12)N1CCC(C(=O)NCc2ccc(Cl)cc2)CC1 = f
Cc1cccc(/C=N/Nc2cc(N3CCOCC3)nc(OCCc3ccccn3)n2)c1 [Apilimod, reference compound] = t
CC(c1cccc2ccccc12)N1CCC(C(=O)NCc2ccc(Cl)cc2)CC1 (centres unmarked) = f
COc1ccc(C[C@H](N)C(=O)N[C@H]2[C@@H](O)[C@H](n3cnc4c(N(C)C)ncnc43)O[C@@H]2CO)cc1 [Puromycin dihydrochloride, reference compound] = f

# next compound below
Query: hey, is SI (average CC50/average EC50) for this one >= 20? CCC(CC)COC(=O)[C@H](C)N[P@](=O)(OC[C@H]1O[C@@](C#N)(c2ccc3c(N)ncnn23)[C@H](O)[C@@H]1O)Oc1ccccc1 [Remdesivir, reference compound]
Reply: t

---

Experiment: Mouse liver microsomal stability assay
Conditions: CD1, mouse, liver microsomes, pH 7.4
Catalogue of half-life at 0.5 μM values
Reply with just the number (in min).

C[C@H](c1cccc2ccccc12)N1CCC(C(=O)NCc2ccc(Cl)cc2)CC1 [Compound 12] = 12.3
COc1ccc(CNC(=O)C2CCN(Cc3cccc4ccccc34)CC2)cc1 [Compound 1] = 18.9
COc1ccc(CNC(=O)C2CCN([C@H](C)c3ccccc3)CC2)cc1 [Compound 3] = 29.5

Query: I have this molecule here, COc1ccc(CNC(=O)[C@H]2CCN([C@H](C)c3cccc4ccccc34)C2)cc1 [Compound 16] , and I need its recorded half-life at 0.5 μM.
Reply: 10.4

Query: I have this molecule here, Cc1ccc(CNC(=O)C2CCN([C@H](C)c3cccc4ccccc34)CC2)cc1 [Compound 4] , and I need its recorded half-life at 0.5 μM.
Reply: 13

Query: I have this molecule here, COc1ccc(CC(=O)NC2CCN([C@H](C)c3cccc4ccccc34)CC2)cc1 [Compound 6] , and I need its recorded half-life at 0.5 μM.
Reply: 16.2

Query: I have this molecule here, C[C@@H](c1cccc2ccccc12)N1CCC(C(=O)NCc2ccncc2)CC1 (racemic) [Compound 10] , and I need its recorded half-life at 0.5 μM.
Reply: 25.3

Query: I have this molecule here, CC[C@@H](C)N1CCC(C(=O)NCc2ccc(OC)cc2)CC1 (racemic) [Compound 14] , and I need its recorded half-life at 0.5 μM.
Reply: 42.3

---

Catalogue of S0 values
System: uninfected HeLa-ACE2 cells
Settings: Hela-ACE2 Uninfected Cell Toxicity, curve fit
Where a name gives a salt, the structure may show the parent alone.
Enter a number only.

// worked examples, S0 included
CC(c1cccc2ccccc12)N1CCC(C(=O)NCc2ccc(Cl)cc2)CC1 (stereo not drawn) = -6.029
C[C@H](c1cccc2ccccc12)N1CCC(C(=O)NCc2ccc(Cl)cc2)CC1 = 0.4208
CCC(CC)COC(=O)[C@H](C)N[P@](=O)(OC[C@H]1O[C@@](C#N)(c2ccc3c(N)ncnn23)[C@H](O)[C@@H]1O)Oc1ccccc1 [Remdesivir, reference compound] = 13.7985
COc1ccc(C[C@H](N)C(=O)N[C@H]2[C@@H](O)[C@H](n3cnc4c(N(C)C)ncnc43)O[C@@H]2CO)cc1 [Puromycin dihydrochloride, reference compound] = -1.04
Cc1cccc(/C=N/Nc2cc(N3CCOCC3)nc(OCCc3ccccn3)n2)c1 [Apilimod, reference compound] = -7.369

Attention now turns to another entry.
Query: Record lookup: for uninfected HeLa-ACE2 cells, what S0 belongs to COc1ccc(CNC(=O)C2CCN(C(C)c3cccc4ccccc34)C2)cc1 (stereo not drawn) ?
Reply: -3.377

---

Assay: physchem
Conditions: 25 °C, pH 7.4, aqueous buffer, kinetic from dmso stock
Catalogue of solubility kinetic at 24 h values

// worked examples, solubility kinetic at 24 h included
C[C@@H](c1cccc2ccccc12)N1CCC(C(=O)NCc2ccncc2)CC1 (racemic) = > 31 µg/mL
COc1ccc(CNC(=O)[C@@H]2CCN([C@@H](C)c3cccc4ccccc34)C2)cc1 = > 19.1 µg/mL
COc1ccc(CC(=O)NC2CCN([C@H](C)c3cccc4ccccc34)CC2)cc1 = > 12.7 µg/mL
COc1ccc(CNC(=O)[C@H]2CCN([C@H](C)c3cccc4ccccc34)C2)cc1 = > 19.5 µg/mL
Cc1ccc(CNC(=O)C2CCN([C@H](C)c3cccc4ccccc34)CC2)cc1 = 8.09 µg/mL

Query: I have this compound here, CC(c1cccc2ccccc12)N1CCC(C(=O)NCc2ccc(Cl)cc2)CC1 (centres unmarked) , and I need its recorded solubility kinetic at 24 h.
Reply: > 13.4 µg/mL

Query: I have this compound here, COc1ccc(CNC(=O)C2CCN(Cc3cccc4ccccc34)CC2)cc1 , and I need its recorded solubility kinetic at 24 h.
Reply: > 21.8 µg/mL

Query: I have this compound here, C[C@@H](c1cccc2ccccc12)N1CCC(C(=O)NCC2CCCCC2)CC1 (racemic) , and I need its recorded solubility kinetic at 24 h.
Reply: 6.15 µg/mL

---

Test system: uninfected HeLa-ACE2 cells
Conditions: Hela-ACE2 Uninfected Cell Toxicity; relation in column qAC50 Mode; unit not given
Structures can show the parent of a compound that is named as a salt.
Catalogue of qAC50 values
Enter a number only.

CCC(CC)COC(=O)[C@H](C)N[P@](=O)(OC[C@H]1O[C@@](C#N)(c2ccc3c(N)ncnn23)[C@H](O)[C@@H]1O)Oc1ccccc1 [Remdesivir, reference compound] = 2.1501e-6

Query: I have this compound here, COc1ccc(C[C@H](N)C(=O)N[C@H]2[C@@H](O)[C@H](n3cnc4c(N(C)C)ncnc43)O[C@@H]2CO)cc1 [Puromycin dihydrochloride, reference compound] , and I need its recorded qAC50.
Reply: 5.784e-7

---

Catalogue of pEC50 values
Test system: SARS-CoV-2
Assay: microbe, parasite or virus in culture
Details: Severe acute respiratory syndrome coronavirus 2, HeLa-ACE2, read-out: CoV-2 EC50
Where a name gives a salt, the structure may show the parent alone.
Hey, just a heads up that pEC50 is the negative log base 10 of the concentration in molar.

// worked examples, pEC50 included
COc1ccc(C[C@H](N)C(=O)N[C@H]2[C@@H](O)[C@H](n3cnc4c(N(C)C)ncnc43)O[C@@H]2CO)cc1 [Puromycin dihydrochloride, reference compound] = 6.42
Cc1cccc(/C=N/Nc2cc(N3CCOCC3)nc(OCCc3ccccn3)n2)c1 [Apilimod, reference compound] = 7.59
C[C@H](c1cccc2ccccc12)N1CCC(C(=O)NCc2ccc(Cl)cc2)CC1 = 5.53
CCC(CC)COC(=O)[C@H](C)N[P@](=O)(OC[C@H]1O[C@@](C#N)(c2ccc3c(N)ncnn23)[C@H](O)[C@@H]1O)Oc1ccccc1 [Remdesivir, reference compound] = 7.02

Query: Record lookup: for SARS-CoV-2, what pEC50 belongs to CC(c1cccc2ccccc12)N1CCC(C(=O)NCc2ccc(Cl)cc2)CC1 (centres unmarked) ?
Reply: 5.43
